Field: inhibition at 1 µM. Provide a value for each of the molecules that follow.
Molecular target: hTLR9 (Homo sapiens, UniProt Q9NR96)
Construct: expressed in transfected cells; host or cells: HEK-Blue-hTLR9 cells (HEK293)
Sequence (Q9NR96 26-1032): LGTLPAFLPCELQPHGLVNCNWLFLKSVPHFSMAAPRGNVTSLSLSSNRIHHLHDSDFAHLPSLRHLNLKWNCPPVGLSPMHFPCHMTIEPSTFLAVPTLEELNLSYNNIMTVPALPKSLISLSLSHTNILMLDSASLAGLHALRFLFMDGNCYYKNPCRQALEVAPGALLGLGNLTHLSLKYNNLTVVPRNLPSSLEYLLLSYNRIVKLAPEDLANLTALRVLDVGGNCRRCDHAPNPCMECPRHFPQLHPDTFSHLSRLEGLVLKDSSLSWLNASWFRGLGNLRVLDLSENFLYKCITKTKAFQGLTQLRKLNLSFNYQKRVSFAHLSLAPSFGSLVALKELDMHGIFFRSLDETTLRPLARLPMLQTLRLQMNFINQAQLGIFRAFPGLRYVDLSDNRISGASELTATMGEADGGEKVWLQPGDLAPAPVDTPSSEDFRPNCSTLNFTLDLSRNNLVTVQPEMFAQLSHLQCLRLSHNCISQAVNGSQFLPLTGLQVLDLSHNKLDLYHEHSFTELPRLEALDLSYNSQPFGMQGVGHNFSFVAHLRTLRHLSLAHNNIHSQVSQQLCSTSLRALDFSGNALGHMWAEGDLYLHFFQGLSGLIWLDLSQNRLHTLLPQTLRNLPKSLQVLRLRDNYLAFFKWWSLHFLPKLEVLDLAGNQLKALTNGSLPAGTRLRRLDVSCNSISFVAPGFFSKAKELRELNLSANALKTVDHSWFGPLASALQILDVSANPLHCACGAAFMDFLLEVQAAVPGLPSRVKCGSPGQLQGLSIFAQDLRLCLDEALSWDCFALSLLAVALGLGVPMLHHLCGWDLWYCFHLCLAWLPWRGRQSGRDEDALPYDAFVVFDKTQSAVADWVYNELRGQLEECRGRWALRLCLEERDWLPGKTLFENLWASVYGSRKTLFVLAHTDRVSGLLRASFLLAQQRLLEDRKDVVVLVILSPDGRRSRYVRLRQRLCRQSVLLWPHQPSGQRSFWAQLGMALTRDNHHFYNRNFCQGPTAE
Assay: hTLR9 antagonism (SEAP inhibition assay) in HEK-Blue-hTLR9 (HEK293) cells, ODN-2006 stimulated
Type: cell-based
Conditions: HEK-Blue hTLR9, 1 μM; SEAP, HEK-Blue-hTLR9 cells; read-out: hTLR9 inhibitory activity (% at 1 μM)
Method: hTLR9 Antagonism (SEAP Inhibition Assay) in HEK293 Cell Lines The SEAP reporter gene in HEK-Blue™-hTLR9 cells is placed under the control of the IFN-b minimal promoter fused to five NF-kB and AP-1 binding sites. The stimulation with a TLR9 ligand (ODN-2006) activates NF-kB and AP-1 which induces the production of SEAP. Levels of SEAP are determined with QUANTI-Blue™ detection medium that turns purple/blue in the presence of alkaline phosphatase. […]
Numbers only, in %.

Here's what some known entries look like.
{"columns": ["Smiles", "Result unit", "Reported measurement"],
 "data": [
  ["CN1CCN(c2ccc(-c3nccc4[nH]c(CN5CCOCC5)cc34)cc2)CC1", "%", 100],
  ["Cc1cc2c(cc(CCN3CCOCC3)n2C)c(-c2cccc(N3CCN(C(C)C)CC3)c2)n1", "%", 100],
  ["Cc1nc(-c2ccc(N3CCN(C(C)C)CC3)cc2)c2cc(CN3CCCC3)[nH]c2c1C", "%", 80],
  ["CN1CCN(Cc2ccc(-c3nccc4[nH]c(CN5CCOCC5)cc34)cc2)CC1", "%", 86],
  ["Cc1cc2c(cc(CCN3CCOCC3)n2C)c(-c2ccc(N3CCN(C(C)C)CC3)c(C)c2)n1", "%", 91],
  ["Cc1cc2[nH]c(CCCN3CCCCC3)cc2c(-c2ccc(N3CCN(C(C)C)CC3)cc2)n1", "%", 94.7],
  ["Cc1cc2[nH]c(CCCN3CCOCC3)cc2c(-c2ccc(N3CCN(C)CC3)cc2)n1", "%", 98.7],
  ["CC(C)N1CCN(c2ccc(-c3nccc4[nH]c(CN5CCOCC5)cc34)cn2)CC1", "%", 77]
]}

Need inhibition at 1 µM for each of these molecules.
1. CC(C)N1CCN(c2ccc(-c3nc(C4CC4)cc4[nH]c(CN5CCOCC5)cc34)cc2)CC1
2. Cc1cc2c(cc(CCN3CCOCC3)n2C)c(-c2ccc(C3CCN(C(C)C)CC3)cc2)n1

Reply |
[90.4, 99.4]

---

Molecular target: mTLR7 (Mus musculus, UniProt P58681)
Construct: Splenocytes isolated from male C57/BL6 mice; from tissue; host or cells: splenocytes from the spleen of male C57BL/6 mice
Sequence (P58681 27-1050): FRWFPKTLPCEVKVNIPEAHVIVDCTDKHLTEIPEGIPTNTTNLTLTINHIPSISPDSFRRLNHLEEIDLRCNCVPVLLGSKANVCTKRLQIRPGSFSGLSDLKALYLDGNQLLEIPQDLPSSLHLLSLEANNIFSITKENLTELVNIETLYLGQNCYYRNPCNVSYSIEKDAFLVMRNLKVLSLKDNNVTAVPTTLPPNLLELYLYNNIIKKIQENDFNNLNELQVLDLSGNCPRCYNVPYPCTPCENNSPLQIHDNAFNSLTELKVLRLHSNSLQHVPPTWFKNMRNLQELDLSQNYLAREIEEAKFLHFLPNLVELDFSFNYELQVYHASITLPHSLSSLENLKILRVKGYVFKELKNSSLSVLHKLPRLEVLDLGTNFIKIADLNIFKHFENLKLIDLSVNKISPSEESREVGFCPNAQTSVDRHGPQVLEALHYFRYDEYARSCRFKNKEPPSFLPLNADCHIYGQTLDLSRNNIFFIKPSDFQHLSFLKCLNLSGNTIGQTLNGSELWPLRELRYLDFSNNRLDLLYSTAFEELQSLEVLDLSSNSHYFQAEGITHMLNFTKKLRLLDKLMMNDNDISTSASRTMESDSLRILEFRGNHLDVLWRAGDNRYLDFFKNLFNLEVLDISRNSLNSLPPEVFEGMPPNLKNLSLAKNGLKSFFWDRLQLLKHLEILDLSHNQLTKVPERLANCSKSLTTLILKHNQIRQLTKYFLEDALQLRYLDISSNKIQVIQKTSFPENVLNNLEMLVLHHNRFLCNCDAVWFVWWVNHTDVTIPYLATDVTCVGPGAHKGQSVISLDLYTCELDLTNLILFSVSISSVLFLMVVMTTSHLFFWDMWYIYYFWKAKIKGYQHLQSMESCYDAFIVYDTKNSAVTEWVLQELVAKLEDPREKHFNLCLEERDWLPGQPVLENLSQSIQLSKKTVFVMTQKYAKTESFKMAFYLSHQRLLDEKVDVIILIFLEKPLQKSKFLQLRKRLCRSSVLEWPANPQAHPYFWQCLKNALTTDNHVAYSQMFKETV
Experiment: mTLR7 antagonism (IL-6 and TNF-α release assay) in mouse splenocytes, R0006/DOTAP stimulated
Assay type: cell-based
Settings: 1 μM; IL-6 release, mouse splenocytes; read-out: mTLR7 inhibitory activity (% at 1 μM), IL-6
Field: inhibition at 1 µM. Provide a value for each of the compounds that follow.
Answers are plain numbers, in %.

{"columns": ["Compound", "Target system", "inhibition at 1 µM / %"],
 "data": [
  ["CC(C)N1CCN(c2ccc(-c3nccc4c3cc(CN3CCOCC3)n4C)cc2)CC1 [Example A8]", "mTLR7 (Mus musculus, UniProt P58681)", 100]
]}

Need inhibition at 1 µM for each of these compounds.
1. Cc1cc2[nH]c(Cn3cccn3)cc2c(-c2ccc(N3CCN(C(C)C)CC3)cc2)n1 [Example A28]
2. Cc1cc2c(cc(CCN3CCOCC3)n2C)c(-c2ccc(N3CCN(C(C)C)CC3)cc2)n1 [Example B11]
3. Cc1cc2c(cc(CCN3CCOCC3)n2C)c(-c2ccc(N3CCN(C(C)C)CC3)cc2C)n1 [Example B15]

Reply |
1: 88; 2: 100; 3: 88

---

Molecular target: mTLR9 (Mus musculus, UniProt Q9EQU3)
Construct: Splenocytes isolated from male C57/BL6 mice; from tissue; host or cells: splenocytes from the spleen of male C57BL/6 mice
Assay: mTLR9 antagonism (IL-6 and TNF-α release assay) in mouse splenocytes, CpG ODN-2006 stimulated
Format: cell-based
Details: 1 μM; TNF-α release, mouse splenocytes; read-out: mTLR9 inhibitory activity (% at 1 μM), TNF-α
Observed property: inhibition at 1 µM

Here's what some known entries look like.
{"columns": ["Compound", "inhibition at 1 µM"],
 "data": [
  ["Cc1cc2[nH]c(CN3CCOCC3)cc2c(-c2ccc(N3CCN(C(C)C)CC3)cc2)n1 [Example A4]", "100%"],
  ["CN1CCN(c2ccc(-c3nccc4[nH]c(CCCN5CCOCC5)cc34)cc2)CC1 [Example C2]", "100%"],
  ["CC(C)N1CC=C(c2ccc(-c3nccc4[nH]c(CN5CCOCC5)cc34)cn2)CC1 [Example A52]", "29%"]
]}

Need inhibition at 1 µM for each of these compounds.
1. Cc1nc(-c2ccc(N3CCN(C(C)C)CC3)cc2)c2cc(CN3CCCCC3)[nH]c2c1C [Example A39]
2. CC(C)N1CCN(c2ccc(-c3nccc4[nH]c(CN5CCOCC5)cc34)cc2)CC1 [Example A1]
3. CN1CCN(c2ccc(-c3nccc4c3cc(CN3CCOCC3)n4C)cc2)CC1 [Example A9]
4. Cc1nc(-c2ccc(N3CCN(C)CC3)cc2)c2cc(CCN3CCOCC3)[nH]c2c1C [Example B7]
5. CC(C)N1CCN(c2cccc(-c3nccc4[nH]c(CN5CCOCC5)cc34)c2)CC1 [Example A57]

Reply |
1: 100%; 2: 94%; 3: 94%; 4: 100%; 5: 34%

Ask | Using the record for CC(C)N1CCN(c2ccc(-c3nccc4[nH]c(CN5CCC(O)CC5)cc34)cc2)CC1 [Example A12] , report its inhibition at 1 µM.
Reply | 52%

---

Molecular target: hTLR9 (Homo sapiens, UniProt Q9NR96)
Construct: expressed in transfected cells; host or cells: HEK-Blue-hTLR9 cells (HEK293)
Experiment: hTLR9 antagonism (SEAP inhibition assay) in HEK-Blue-hTLR9 (HEK293) cells, ODN-2006 stimulated
Format: cell-based
Conditions: HEK-Blue hTLR9, 1 μM; SEAP, HEK-Blue-hTLR9 cells; read-out: hTLR9 inhibitory activity (% at 1 μM)
Field: inhibition at 1 µM. Provide a value for each of the compounds that follow.
Numbers only, in %.

{"columns": ["Compound", "inhibition at 1 µM / %"],
 "data": [
  ["Cc1cc2[nH]c(CN3CCC(F)CC3)cc2c(-c2ccc(N3CCN(C(C)C)CC3)cc2)n1 [Example A27]", 96.4]
]}

Need inhibition at 1 µM for each of these compounds.
1. CC(C)N1CCN(c2ccc(-c3nccc4[nH]c(CN5CCC(F)(F)C5)cc34)cc2)CC1 [Example A18]
2. Cc1nc(-c2ccc(N3CCN(C(C)C)CC3)cc2)c2cc(CN3CCCCC3)[nH]c2c1C [Example A39]

Reply |
[100, 74.3]

---

Biological target: mTLR9 (Mus musculus, UniProt Q9EQU3)
Construct: Splenocytes isolated from male C57/BL6 mice; from tissue; host or cells: splenocytes from the spleen of male C57BL/6 mice
Sequence (Q9EQU3 26-1032): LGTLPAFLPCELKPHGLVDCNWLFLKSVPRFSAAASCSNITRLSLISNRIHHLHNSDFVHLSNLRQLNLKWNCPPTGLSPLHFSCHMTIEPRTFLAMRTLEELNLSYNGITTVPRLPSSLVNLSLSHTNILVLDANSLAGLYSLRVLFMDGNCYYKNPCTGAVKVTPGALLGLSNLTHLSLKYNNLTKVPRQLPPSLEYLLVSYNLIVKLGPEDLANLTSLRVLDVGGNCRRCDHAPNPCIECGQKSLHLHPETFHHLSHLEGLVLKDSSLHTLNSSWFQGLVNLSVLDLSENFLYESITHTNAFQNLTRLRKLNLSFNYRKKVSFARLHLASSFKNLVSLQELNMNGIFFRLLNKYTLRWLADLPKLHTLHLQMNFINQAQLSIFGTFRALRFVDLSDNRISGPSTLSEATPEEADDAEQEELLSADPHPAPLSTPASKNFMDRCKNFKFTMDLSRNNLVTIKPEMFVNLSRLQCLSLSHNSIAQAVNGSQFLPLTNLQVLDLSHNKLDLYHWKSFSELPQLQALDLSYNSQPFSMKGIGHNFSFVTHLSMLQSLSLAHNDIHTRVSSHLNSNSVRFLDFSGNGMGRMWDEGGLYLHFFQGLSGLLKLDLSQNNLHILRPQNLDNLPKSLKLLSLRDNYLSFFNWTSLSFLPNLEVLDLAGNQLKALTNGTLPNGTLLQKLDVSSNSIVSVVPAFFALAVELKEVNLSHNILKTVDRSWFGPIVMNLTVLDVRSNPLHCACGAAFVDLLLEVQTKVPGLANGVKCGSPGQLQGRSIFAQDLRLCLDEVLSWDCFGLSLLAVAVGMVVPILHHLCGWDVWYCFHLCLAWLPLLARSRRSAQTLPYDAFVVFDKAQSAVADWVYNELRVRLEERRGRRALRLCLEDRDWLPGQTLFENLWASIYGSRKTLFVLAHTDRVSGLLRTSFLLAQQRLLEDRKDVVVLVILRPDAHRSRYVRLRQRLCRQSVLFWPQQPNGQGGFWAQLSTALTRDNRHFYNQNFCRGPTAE
Experiment: mTLR9 antagonism (IL-6 and TNF-α release assay) in mouse splenocytes, CpG ODN-2006 stimulated
Assay type: cell-based
Settings: 1 μM; TNF-α release, mouse splenocytes; read-out: mTLR9 inhibitory activity (% at 1 μM), TNF-α
Field: inhibition at 1 µM. Provide a value for each of the molecules that follow.
Numbers only, in %.

Here's what some known entries look like.
{"columns": ["Smiles", "Result unit", "inhibition at 1 µM"],
 "data": [
  ["CC(C)N1CCN(c2ccc(-c3nc(C4CC4)cc4[nH]c(CN5CCOCC5)cc34)cc2)CC1", "%", 85],
  ["COc1cc(-c2nc(C)cc3c2cc(CCN2CCOCC2)n3C)ccc1N1CCN(C(C)C)CC1", "%", 92],
  ["CC(C)N1CCN(c2ccc(-c3nccc4c3cc(CN3CCOCC3)n4C)cc2)CC1", "%", 100],
  ["CC(C)N1CCN(c2ccc(-c3nccc4[nH]c(CCN5CCOCC5)cc34)cc2)CC1", "%", 100]
]}

Ask | Using the record for CC(C)N1CCC(c2ccc(-c3nccc4[nH]c(CN5CCOCC5)cc34)cc2)CC1 , report its inhibition at 1 µM.
Reply | 52
